- target_entity: Bcl-2-like protein 10 (Homo sapiens)
- assay_comment: TR3 peptide-Bcl-B binding displacers, biochemical primary FP assay, phenotype converters (AID 1240);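 note: 0% = Bcl-B with tracer peptide and DMSO and 100% = tracer peptide lacking Bcl-B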
- test_parameters: GST-Bcl-B / FITC-TR3 peptide fluorescence polarization; stronger effect = higher value; compound at 3.75 mg/L
About 800 (1.6%) of roughly 50,000 compounds showed an effect of 50% or more. Many of the other results were omitted from the sample, so strong results are more common in it than they were.
assay_metric: displacement (%)
// note: answer is a bare numeric in %

Worked examples follow.
Ask | Fill in: displacement of C=CCN1C(=O)/C(=C\c2cccc(OCc3cccc4ccccc34)c2)SC1=S is ___
Reply | 15.9

Ask | Now try CCOC(=O)NC12CC3CC(C1)CC(C(F)(F)F)(C3)C2 .
Reply | 3.2

Ask | Now try CCN1C(=O)/C(=C\c2ccc(OCc3cccc4ccccc34)cc2)SC1=S .
Reply | 106

Ask | Now try C/C(=C\C(=O)c1ccc(Cl)cc1)Nc1ccc(Br)c(C)c1 .
Reply | 4.4

Continuing:
Ask | Fill in: displacement of C=CCN1C(=O)/C(=C\c2ccc(OCc3cccc4ccccc34)cc2)SC1=S is ___
Reply | 87.1

Ask | Now try Cc1ccc(-n2ccc(N)c(C#N)c2=O)cc1 .
Reply | 3.3

Ask | Now try Cc1cccc(OCCn2c(N)nc3ccccc32)c1 .
Reply | -10.3
